System: DENV-1 strain TC974 #666
Experiment: Tetravalent RT-qPCR assay, serotype 1
Type: cell-based
Conditions: Dengue virus, DENV1, 72 h; RT-qPCR serotype 1 TC974#666, Protocol A, Vero cells, day 3
Experimental: The antiviral activity of the compounds of the invention was tested against DENV-1 strain TC974 #666 (NCPV), DENV-2 strain 16681, DENV-3 strain H87 (NCPV) and DENV-4 strain H241 (NCPV) in a RT-qPCR assay. Therefore, Vero cells were infected with either DENV-1, or -2, or -3, or -4 in the presence or absence of test compounds. […] In addition, CC50 values are determined based on the Cp values acquired for the housekeeping gene β-actin. […]
Measurement label: EC50 (nM)
Lab book: enter the figure in nM, no units written.

Example cases with answers are listed next.
COc1cc(NC(C(=O)c2c[nH]c3c(C)cc(OC(F)(F)F)cc23)c2ccc(Cl)cc2OC)cc(OCCO)c1 (single isomer, unassigned) [Compound 16A]; 0.63
COc1cc(NC(C(=O)c2c[nH]c3cc(F)c(C(F)(F)F)cc23)c2ccc(Cl)cc2OC)cc(OCCO)c1 (single isomer, unassigned) [Compound 11A]; 0.69
COc1cc(NC(C(=O)c2c[nH]c3ccc(C(F)(F)F)cc23)c2ccc(F)cc2OC)cc(OCCO)c1 (single isomer, unassigned); 1.3
COc1cc(NC(C(=O)c2c[nH]c3cc(F)c(C(F)(F)F)cc23)c2ccc(F)cc2OC)cc(OCCO)c1 (single isomer, unassigned); 2.1
COc1cc(NC(C(=O)c2c[nH]c3cc(OC)c(OC(F)(F)F)cc23)c2ccc(F)cc2OC)cc(OCCO)c1 (single isomer, unassigned); 2.6

Q: I have this molecule here, COc1cc(NC(C(=O)c2c[nH]c3ccc(C(F)(F)F)cc23)c2ccc(Cl)cc2OC)cc(OCCO)c1 (single isomer, unassigned) , and I need its recorded EC50.
A: 0.88

Q: Look up EC50: COc1cc(NC(C(=O)c2c[nH]c3cc(F)c(OC(F)(F)F)cc23)c2ccc(F)cc2OC)cc(OCCO)c1 (single isomer, unassigned)
A: 1.2

Q: // returns reported EC50 for input COc1cc(NC(C(=O)c2c[nH]c3c(C)cc(C(F)(F)F)cc23)c2ccc(Cl)cc2OC)cc(OCCO)c1 (single isomer, unassigned) [Compound 12A]
A: 0.4

Q: // returns reported EC50 for input COc1cc(NC(C(=O)c2c[nH]c3cc(OC)c(OC(F)(F)F)cc23)c2ccc(Cl)cc2OC)cc(OCCO)c1 (single isomer, unassigned) [Compound 14A]
A: 0.92
